Values compiled from ChEMBL document CHEMBL4619744.

- TARGET_OF_ASSAY: Catechol O-methyltransferase (Rattus norvegicus)
- Sequence (P22734 whole entry): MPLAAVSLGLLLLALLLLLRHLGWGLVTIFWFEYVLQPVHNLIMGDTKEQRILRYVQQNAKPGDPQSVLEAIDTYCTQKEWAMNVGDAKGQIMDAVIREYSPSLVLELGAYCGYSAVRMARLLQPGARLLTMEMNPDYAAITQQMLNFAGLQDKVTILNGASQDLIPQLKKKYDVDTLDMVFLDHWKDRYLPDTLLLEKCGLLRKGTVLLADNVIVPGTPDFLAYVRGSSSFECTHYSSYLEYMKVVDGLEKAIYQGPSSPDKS
Please note: IC50 exactly at 200 nM is NO. Only values below 200 nM get YES.

[[record]]
compound = "O=C(/C=C/c1ccsc1)c1cc(O)c(O)c([N+](=O)[O-])c1"
class_name = "NO"

[[record]]
compound = "CC(=O)N1N=C(c2cc(O)c(O)c([N+](=O)[O-])c2)CC1c1ccc(C#N)cc1 (stereo not given)"
class_name = "YES"

[[record]]
compound = "CC(=O)N1N=C(c2cc(O)c(O)c([N+](=O)[O-])c2)CC1c1cccc(O)c1 (stereo not given)"
class_name = "YES"

[[record]]
compound = "O=C(/C=C/c1cccs1)c1cc(O)c(O)c([N+](=O)[O-])c1"
class_name = "YES"

[[record]]
compound = "Cn1cc(/C=C/C(=O)c2cc(O)c(O)c([N+](=O)[O-])c2)cn1"
class_name = "NO"


###

- TARGET_OF_ASSAY: Amine oxidase [flavin-containing] B (Homo sapiens)
- Sequence (P27338 whole entry): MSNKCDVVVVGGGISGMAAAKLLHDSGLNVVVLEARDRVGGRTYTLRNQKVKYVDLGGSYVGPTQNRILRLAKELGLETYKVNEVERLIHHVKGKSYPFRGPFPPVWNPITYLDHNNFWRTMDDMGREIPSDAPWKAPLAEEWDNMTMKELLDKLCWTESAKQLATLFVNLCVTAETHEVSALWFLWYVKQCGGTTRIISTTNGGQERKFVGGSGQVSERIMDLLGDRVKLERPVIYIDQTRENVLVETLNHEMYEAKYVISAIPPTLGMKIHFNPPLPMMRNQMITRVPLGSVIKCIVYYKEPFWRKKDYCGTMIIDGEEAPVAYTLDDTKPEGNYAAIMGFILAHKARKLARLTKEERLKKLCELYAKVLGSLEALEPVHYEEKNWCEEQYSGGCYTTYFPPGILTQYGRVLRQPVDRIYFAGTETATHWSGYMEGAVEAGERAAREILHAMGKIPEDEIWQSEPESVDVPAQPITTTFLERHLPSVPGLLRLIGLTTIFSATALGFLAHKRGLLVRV
- PROTOCOL: Inhibition of recombinant human MAOB using kynuramine as substrate by fluorescence based assay
pIC50: −log10 of the molar value.
Listed compounds paired with reported pIC50
METRIC_NAME: pIC50

[[record]]
compound = "N#Cc1cccc(/C=C/C(=O)c2cc(O)c(O)c([N+](=O)[O-])c2)c1"
reported_result = 4.22

[[record]]
compound = "O=C(/C=C/c1ccco1)c1cc(O)c(O)c([N+](=O)[O-])c1"
reported_result = 4.17

[[record]]
compound = "CC(=O)N1N=C(c2cc(O)c(O)c([N+](=O)[O-])c2)CC1c1cccs1 (stereo unspecified)"
reported_result = 4.16

[[record]]
compound = "CC(=O)N1N=C(c2cc(O)c(O)c([N+](=O)[O-])c2)CC1c1ccco1 (stereo unspecified)"
reported_result = 4.11

[[record]]
compound = "O=C(/C=C/c1cccc(O)c1)c1cc(O)c(O)c([N+](=O)[O-])c1"
reported_result = 4.25

[[record]]
compound = "O=C(/C=C/c1nccs1)c1cc(O)c(O)c([N+](=O)[O-])c1"
reported_result = 4.23

[[record]]
compound = "O=C(/C=C/c1ccsc1)c1cc(O)c(O)c([N+](=O)[O-])c1"
reported_result = 4.38

[[record]]
compound = "O=C(/C=C/c1ccoc1)c1cc(O)c(O)c([N+](=O)[O-])c1"
reported_result = 4.15

[[record]]
compound = "O=C(/C=C/c1cccs1)c1cc(O)c(O)c([N+](=O)[O-])c1"
reported_result = 4.20

[[record]]
compound = "CC(=O)N1N=C(c2cc(O)c(O)c([N+](=O)[O-])c2)CC1c1cccc(O)c1 (stereo unspecified)"
reported_result = 4.07

[[record]]
compound = "CC(=O)N1N=C(c2cc(O)c(O)c([N+](=O)[O-])c2)CC1c1nccs1 (stereo unspecified)"
reported_result = 4.17

